Test system: KYSE-150 esophageal carcinoma cell line
Assay: In vitro cell-based assay: BrdU incorporation cell proliferation ELISA
Set-up: species or system human
Conditions: KYSE-150 cells, 168 hours compound incubation, read-out: Cellular IC50
measured_metric: IC50

| smiles_entry | target | measured_metric | reported_value |
| --- | --- | --- | --- |
| CN(c1ccc(Oc2nc(O)c3ccncc3n2)cc1)c1ccccc1F | KYSE-150 esophageal carcinoma cell line | IC50 | 1 to 10 µM |

###

Reported IC50 by item:
Target: JMJD2C (Homo sapiens (Human))
Sequence (Q9H3R0 2-372): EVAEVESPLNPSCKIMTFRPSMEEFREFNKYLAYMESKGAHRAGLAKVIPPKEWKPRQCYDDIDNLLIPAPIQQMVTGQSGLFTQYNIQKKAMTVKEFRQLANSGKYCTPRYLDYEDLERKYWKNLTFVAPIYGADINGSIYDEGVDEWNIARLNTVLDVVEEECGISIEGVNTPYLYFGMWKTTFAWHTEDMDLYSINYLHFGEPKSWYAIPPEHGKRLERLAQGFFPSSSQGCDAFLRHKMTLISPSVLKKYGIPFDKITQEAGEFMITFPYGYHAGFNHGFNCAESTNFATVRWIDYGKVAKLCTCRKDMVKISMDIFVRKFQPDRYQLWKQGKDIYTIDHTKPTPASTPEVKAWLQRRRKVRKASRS

| compound | IC50 |
| --- | --- |
| CN(c1ccc(Oc2nc(O)c3ccncc3n2)cc1)c1ccc(C(C)(C)O)cc1 [Example 64] | 100 to 1000 nM |
| CCc1ccc(N(C)c2ccc(Oc3nc(O)c4ccncc4n3)cc2)cc1N1CCOCC1 [Example 59] | ≤ 100 nM |
| COCCNCC(C)c1ccc(N(C)c2ccc(Oc3nc(O)c4ccncc4n3)cc2)cc1 (centres unmarked) [Example 100] | ≤ 100 nM |
| COC(C)c1ccc(N(C)c2ccc(Oc3nc(O)c4ccncc4n3)cc2)cc1 (centres unmarked) [Example 36] | 100 to 1000 nM |
| CN(c1ccc(Oc2nc(O)c3ccncc3n2)cc1)c1cccc(N2CCC(N)CC2)c1 [Example 50] | ≤ 100 nM |
| CN(c1ccc(Oc2nc(O)c3ccncc3n2)cc1)c1ccc(N2CCCC2)cc1 [Example 49] | 1000 to 10000 nM |
| CC(c1ccc(N(C)c2ccc(Oc3nc(O)c4ccncc4n3)cc2)cc1)C1CC1 (centres unmarked) [Example 39] | 1000 to 10000 nM |
| CCc1ccc(N(C)c2ccc(Oc3nc(O)c4ccncc4n3)cc2)cc1 [Example 84] | 100 to 1000 nM |

###

Reported pIC50 by item:
System: KYSE-150 esophageal carcinoma cell line
Experiment: In vitro cell-based assay: BrdU incorporation cell proliferation ELISA
Parameters: species or system human
Conditions: Homo sapiens, KYSE-150 cells, 168 hours compound incubation, read-out: Cellular IC50
pIC50: −log10 of the molar value.
measured_metric: pIC50

| compound | reported_value |
| --- | --- |
| Cc1ccc(N(C)c2ccc(Oc3nc(O)c4ccncc4n3)cc2)cc1N1CCN(C)CC1 | 5.00 to 6.00 |
| COCC(C)(C)c1ccc(N(C)c2ccc(Oc3nc(O)c4ccncc4n3)cc2)cc1 | ≥ 7.00 |
| CN(c1ccc(Oc2nc(O)c3ccncc3n2)cc1)c1ccc(C2CCOCC2)cc1 | ≥ 7.00 |
| CC(CC#N)c1ccc(N(C)c2ccc(Oc3nc(O)c4ccncc4n3)cc2)cc1 (stereo not drawn) | ≥ 7.00 |
| CN(c1ccc(Oc2nc(O)c3ccncc3n2)cc1)c1cccc(N2CCC(N)CC2)c1 | < 5.00 |
| CC(C)Oc1ccc(N(C)c2ccc(Oc3nc(O)c4ccncc4n3)cc2)cc1 | 6.00 to 7.00 |
| CN(c1ccc(Oc2nc(O)c3ccncc3n2)cc1)c1ccc2nn(C)cc2c1 | < 5.00 |
| CN(c1ccc(Oc2nc(O)c3ccncc3n2)cc1)c1ccc(C(C)(C)O)cc1 | 6.00 to 7.00 |
| CN(c1ccc(Oc2nc(O)c3ccncc3n2)cc1)c1ccc(C(F)(F)F)cc1 | 6.00 to 7.00 |
| C[C@@H](c1ccccc1)N(C)c1ccc(Oc2nc(O)c3ccncc3n2)cc1 | 5.00 to 6.00 |
| CN(c1ccc(Oc2nc(O)c3ccncc3n2)cc1)c1ccc(C2(C(F)(F)F)CC2)cc1 | ≥ 7.00 |
| CCN(c1ccc(Oc2nc(O)c3ccncc3n2)cc1)c1ccc(C(C)C)cc1 | ≥ 7.00 |
| CN1CCN(c2cccc(N(C)c3ccc(Oc4nc(O)c5ccncc5n4)cc3)c2)CC1=O | < 5.00 |
| CN(c1ccccc1)c1ccc(Oc2nc(O)c3ccncc3n2)cc1 | 6.00 to 7.00 |
| CN(c1ccc(Oc2nc(O)c3ccncc3n2)cc1)c1ccccn1 | 5.00 to 6.00 |
| Cc1ccc(N(C)c2ccc(Oc3nc(O)c4ccncc4n3)cc2)cc1N1CCOCC1 | 5.00 to 6.00 |
| CN(C(=O)Cc1ccccc1)c1ccc(Oc2nc(O)c3ccncc3n2)cc1 | < 5.00 |
| CN1CCN(c2ccc(N(C)c3ccc(Oc4nc(O)c5ccncc5n4)cc3)cc2)CC1 | < 5.00 |
